Biological target: Gastrin/cholecystokinin type B receptor (Homo sapiens)
Sequence (P32239 whole entry): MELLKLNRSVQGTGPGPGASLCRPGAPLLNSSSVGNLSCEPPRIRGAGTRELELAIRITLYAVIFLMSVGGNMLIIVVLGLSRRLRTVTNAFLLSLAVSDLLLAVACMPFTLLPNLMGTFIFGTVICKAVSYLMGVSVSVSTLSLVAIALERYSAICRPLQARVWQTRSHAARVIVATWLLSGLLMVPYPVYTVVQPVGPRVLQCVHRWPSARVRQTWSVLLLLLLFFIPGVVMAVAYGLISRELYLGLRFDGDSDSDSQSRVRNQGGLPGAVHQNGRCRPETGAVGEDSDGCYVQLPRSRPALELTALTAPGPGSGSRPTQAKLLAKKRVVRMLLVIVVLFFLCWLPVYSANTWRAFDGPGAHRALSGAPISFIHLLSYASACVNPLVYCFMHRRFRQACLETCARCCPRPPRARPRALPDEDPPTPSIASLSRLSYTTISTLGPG
Assay: Displacement of [125I]BH-CCK-8S from human recombinant CCK2 receptor expressed in NIH3T3 cells
Assay type: cell-based
The label is YES for Ki below 10 nM and NO for Ki equal to or exceeding 10 nM.

Use the examples below as a reference point.
>  <Structure String>
CC(C)(C)C(=O)CN1C(=O)N(CCCC(=O)Nc2cccc(-c3nc(=O)o[nH]3)c2)C(=O)N(C2CCCCC2)c2ccccc21

>  <Category Label>
NO

$$$$
>  <Structure String>
Cc1nc(-c2cccc(NC(=O)CN3C(=O)N(CC(=O)C(C)(C)C)c4ccccc4N(C4CCCCC4)C3=O)c2)cs1

>  <Category Label>
YES

$$$$
>  <Structure String>
O=C(CN1C(=O)N(CC(=O)N2CCCC2)c2ccccc2N(c2ccccc2)C1=O)Nc1cccc(C(=O)O)c1

>  <Category Label>
NO

$$$$
>  <Structure String>
CC(C)(C)C(=O)CN1C(=O)N(CC(=O)Nc2cccc(CCC(=O)O)c2)C(=O)N(C2CCCCC2)c2ccccc21

>  <Category Label>
YES

$$$$

Continue with the next compound.
Input line: Is it true that Ki reported for `CN(c1cccc(NC(=O)CN2C(=O)N(CC(=O)C(C)(C)C)c3ccccc3N(C3CCCCC3)C2=O)c1)c1nn[nH]n1` is less than 10 nM?
Output line: YES

Data credit: ChEMBL document CHEMBL1145547
